Ref: patent US20230331737A1

EXPERIMENTAL_TARGET: mTORC1 (Homo sapiens, UniProt P42345+P62942)
Construct: endogenous in cells
METHOD_SUMMARY: mTORC1 inhibition in PC-3 cells, AlphaLISA of p70S6K pT389 levels
CONDITION_INFO: mTORC1 as measured by inhibition of p70S6K pT389 levels, read-out: mTROC1 IC50
pIC50: −log10 of the molar value.
Measured pIC50 of individual entries
QUANTITY_MEASURED: pIC50

[
  {
    "COMPOUND": "COCCO[C@H]1C[C@@H]2CC[C@@H](C)[C@@](O)(O2)C(=O)C(=O)N2CCCC[C@H]2C(=O)O[C@H]([C@H](C)C[C@@H]2CC[C@@H](OCCCO)[C@H](OC)C2)CC(=O)[C@H](C)/C=C(\\C)[C@@H](O)[C@@H](OC)C(=O)[C@H](C)C[C@H](C)/C=C/C=C/C=C/1C",
    "QUANTITY_MEASURED": "pIC50",
    "OBSERVED_RESULT": "> 9.10"
  },
  {
    "COMPOUND": "CO[C@@H]1C[C@H](C[C@@H](C)[C@@H]2CC(=O)[C@H](C)/C=C(\\C)[C@@H](O)[C@@H](OC)C(=O)[C@H](C)C[C@H](C)/C=C/C=C/C=C(\\C)[C@H](OCCc3ccccc3)C[C@@H]3CC[C@@H](C)[C@@](O)(O3)C(=O)C(=O)N3CCCCC3C(=O)O2)CC[C@H]1O (stereo partly drawn)",
    "QUANTITY_MEASURED": "pIC50",
    "OBSERVED_RESULT": "8.82 to 9.10"
  },
  {
    "COMPOUND": "COCCO[C@@H]1C[C@@H]2CC[C@@H](C)[C@@](O)(O2)C(=O)C(=O)N2CCCC[C@H]2C(=O)O[C@H]([C@H](C)C[C@@H]2CC[C@@H](OCCCN3CCN(C)CC3)[C@H](OC)C2)CC(=O)[C@H](C)/C=C(\\C)[C@@H](O)[C@@H](OC)C(=O)[C@H](C)C[C@H](C)/C=C/C=C/C=C/1C",
    "QUANTITY_MEASURED": "pIC50",
    "OBSERVED_RESULT": "< 8.82"
  },
  {
    "COMPOUND": "CO[C@@H]1C[C@H](C[C@@H](C)[C@@H]2CC(=O)[C@H](C)/C=C(\\C)[C@@H](O)[C@@H](OC)C(=O)[C@H](C)C[C@H](C)/C=C/C=C/C=C(\\C)[C@@H](OCC3COC3)C[C@@H]3CC[C@@H](C)[C@@](O)(O3)C(=O)C(=O)N3CCCC[C@H]3C(=O)O2)CC[C@H]1OCCO",
    "QUANTITY_MEASURED": "pIC50",
    "OBSERVED_RESULT": "> 9.10"
  },
  {
    "COMPOUND": "CO[C@@H]1C[C@H](C[C@@H](C)[C@@H]2CC(=O)[C@H](C)/C=C(\\C)[C@@H](O)[C@@H](OC)C(=O)[C@H](C)C[C@H](C)/C=C/C=C/C=C(\\C)[C@H](OCC3COC3)C[C@@H]3CC[C@@H](C)[C@@](O)(O3)C(=O)C(=O)N3CCCC[C@H]3C(=O)O2)CC[C@H]1O",
    "QUANTITY_MEASURED": "pIC50",
    "OBSERVED_RESULT": "8.82 to 9.10"
  },
  {
    "COMPOUND": "CO[C@@H]1C[C@H](C[C@@H](C)[C@@H]2CC(=O)[C@H](C)/C=C(\\C)[C@@H](O)[C@@H](OC)C(=O)[C@H](C)C[C@H](C)/C=C/C=C/C=C(\\C)[C@H](OC3CC3)C[C@@H]3CC[C@@H](C)[C@@](O)(O3)C(=O)C(=O)N3CCCC[C@H]3C(=O)O2)CC[C@H]1O",
    "QUANTITY_MEASURED": "pIC50",
    "OBSERVED_RESULT": "> 9.10"
  }
]
